// read-out IC50, gathered for 11-beta-hydroxysteroid dehydrogenase 1 (Homo sapiens, UniProt P28845) from published studies

Examples from the recorded data:
>>> endpoint_result("O=C1CSC(NC23CC4CC(CC(C4)C2)C3)=N1")
"> 10 µM"
>>> endpoint_result("CC1SC(NC2CCCC2)=NC1=O (centres unmarked)")
"> 10 µM"
>>> endpoint_result("Cc1coc2c1C(=O)C(=O)c1c-2ccc2c1CCC(=O)C2(C)C")
"0.21 µM"

Record O=C1N=C(NC23CC4CC(CC(C4)C2)C3)SC1c1ccccc1 (centres unmarked) ; system 11-beta-hydroxysteroid dehydrogenase 1 (Homo sapiens, UniProt P28845); IC50 = > 10 µM

Record CCC1SC(NC2CCCC2)=NC1=O (centres unmarked) ; system 11-beta-hydroxysteroid dehydrogenase 1 (Homo sapiens, UniProt P28845); IC50 = > 10 µM
